Origin of the recorded values: ChEMBL document CHEMBL3244325

Organism: Mus musculus
assay_details: Inhibition of morphine-induced analgesia in mouse by tail clip method
Format: functional
observed_property: AD50 (mg/kg)
Dear colleague, please return just the value in mg/kg, with no unit written.

Worked set:
Task item: Item C=CCN1CC[C@]23c4c5ccc(O)c4O[C@H]2C(=O)CC[C@@]3(O)[C@H]1C5.Cl [NALOXONE HYDROCHLORIDE] has what recorded AD50?
Reply: 0.03

Task item: Quick check: AD50 of Cl.O=C1CC[C@@]2(O)[C@H]3Cc4ccc(O)c5c4[C@@]2(CCN3C[C@@H]2CCCO2)[C@H]1O5 ?
Reply: 5

Task item: // returns reported AD50 for input CC(C)=CCN1CCC2(C)c3cc(O)ccc3CC1C2C.Cl (stereo not given) [PENTAZOCINE HYDROCHLORIDE]
Reply: 8

Task item: Fill blank: measured AD50 of the compound Cl.O=C1CC[C@@]2(O)[C@H]3Cc4ccc(O)c5c4[C@@]2(CCN3C[C@H]2CCCO2)[C@H]1O5 is ____.
Reply: 4

Consider the record given below.
Task item: Bench note: what AD50 did C=CCN1CC[C@]23c4c5ccc(O)c4O[C@H]2[C@@H](O)C=C[C@H]3[C@H]1C5.Cl [NALORPHINE HYDROCHLORIDE] show?
Reply: 1
